FYI, the data here is from patent US11952584B2.

# Tested on: Fusarium oxysporum
# Format: cell-based
Readout kind: Plate antimicrobial activity test Fusarium oxysporum (level)
I'd appreciate a reply containing only the number, no unit.

What value of Plate antimicrobial activity test Fusarium oxysporum (level) has been recorded for this entry: AFSERTRK (listed as Solanum lycopersicum) [TsORF18-2-8aa-6]
0

Likewise for YGFPAFSE (listed as Solanum lycopersicum) [TsORF18-2-8aa-2] ?
0

# repeat for YYGFPAFS (listed as Solanum lycopersicum) [TsORF18-2-8aa-1]
0

Lookup FSERTRKF (listed as Solanum lycopersicum) [TsORF18-2-8aa-7]
0

Try this sequence next: GFPAFSER (listed as Solanum lycopersicum) [TsORF18-2-8aa-3]
0

Queued: SERTRKFW (listed as Solanum lycopersicum) [TsORF18-2-8aa-8]
0

Moving on to the next sequence: PAFSERTR (listed as Solanum lycopersicum) [TsORF18-2-8aa-5]
0

And then ILLSLEIFERKFSRSVWYYGFP [TsORF18-1] , what is it?
0

Quick one: FPAFSERT (listed as Solanum lycopersicum) [TsORF18-2-8aa-4]
0
